tested target: P-selectin (P-selectin/IgG) (Homo sapiens)
Sequence (P16109 42-771): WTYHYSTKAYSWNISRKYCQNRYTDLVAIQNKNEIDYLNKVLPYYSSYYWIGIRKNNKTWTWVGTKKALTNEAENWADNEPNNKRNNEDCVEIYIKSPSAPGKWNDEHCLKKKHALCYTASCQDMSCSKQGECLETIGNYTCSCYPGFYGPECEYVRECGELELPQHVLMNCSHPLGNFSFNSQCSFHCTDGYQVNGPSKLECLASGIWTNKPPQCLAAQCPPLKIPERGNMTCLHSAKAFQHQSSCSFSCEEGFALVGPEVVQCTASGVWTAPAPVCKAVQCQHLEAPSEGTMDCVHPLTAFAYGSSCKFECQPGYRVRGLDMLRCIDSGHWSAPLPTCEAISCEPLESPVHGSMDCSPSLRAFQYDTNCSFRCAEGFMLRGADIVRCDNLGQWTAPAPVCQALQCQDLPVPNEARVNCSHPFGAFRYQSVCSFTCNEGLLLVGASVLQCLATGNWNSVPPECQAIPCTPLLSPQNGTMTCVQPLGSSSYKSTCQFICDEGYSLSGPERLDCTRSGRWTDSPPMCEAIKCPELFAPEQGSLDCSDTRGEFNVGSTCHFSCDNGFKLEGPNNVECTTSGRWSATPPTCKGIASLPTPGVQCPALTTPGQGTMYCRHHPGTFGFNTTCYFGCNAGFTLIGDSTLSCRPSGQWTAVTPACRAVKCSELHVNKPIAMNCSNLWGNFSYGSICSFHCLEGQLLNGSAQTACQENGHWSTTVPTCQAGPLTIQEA
assay method text: Cell-free P-selectin ligand competitive binding assay (sLe^a-PAA)
assay setup: P-selectin/IgG coated plate, sLe^a-PAA streptavidin-POD complex, 25° C., 2 hours; read-out: IC50, Binding Affinity to P-Selectin Determined by Competitive Binding Assay
recorded endpoint: IC50 (µM)

- CCC1CC(C(=O)NCCCc2cn(CCCCC(=O)Nc3cc(S(=O)(=O)O)cc4cc(S(=O)(=O)O)cc(S(=O)(=O)O)c34)nn2)CC(OC2OC(CO)C(O)C(OC(CC3CCCCC3)C(=O)O)C2OC(=O)c2ccccc2)C1OC1OC(C)C(O)C(O)C1O (stereo not shown) [Compound 15c]: 210

P = CC1CC(C(=O)NCCCc2cn(CCC(=O)Nc3cc(S(=O)(=O)O)cc4cc(S(=O)(=O)O)cc(S(=O)(=O)O)c34)nn2)CC(OC2OC(CO)C(O)C(OC(CC3CCCCC3)C(=O)O)C2OC(=O)c2ccccc2)C1OC1OC(C)C(O)C(O)C1O (stereo not shown)
Q = CCC1CC(C(=O)NCCCc2cn(CCC(=O)Nc3cc(S(=O)(=O)O)cc4cc(S(=O)(=O)O)cc(S(=O)(=O)O)c34)nn2)CC(OC2OC(CO)C(O)C(OC(CC3CCCCC3)C(=O)O)C2OC(=O)c2ccccc2)C1OC1OC(C)C(O)C(O)C1O (stereo not shown) [Compound 15a]
Problem: Which entry has a larger number for IC50, P or Q ? // respond with label for picked entry
Solution: P
(P: 185 µM, Q: 94 µM)
